ASSAY_TARGET: T1, γδ T cell receptor on human γδ T cells (human)
T1 construct: Mixed population of primary cells; also called AG000003021 (γδ T cells)
PROTOCOL_TEXT: flow cytometry, dose-response binding at 37° C. on human γδ T cells
RECORDED_METRIC: Max. Activity (fold over background)
Give bare numbers, in fold over background.

Field: Max. Activity. Fill in for each record below.
1. VG9B60 (antibody, human IgG1, kappa, V domains shown) VH: QVQLVQSGAEVKKPGASVKVSCKASGYTFTGYYMHWVRQAPGQGLEWMGRINPNSGVTHYAQKFQGRVTMTRDTSISTAYMELSRLRSDDTAVYYCARGGSLVRGVISGLDYWGQGTTVTVSS VL: DIVMTQSPGTLSLSPGERATLSCRASQSFSGSYLAWYQQKPGQAPSLLIYGASSRATGIPDRFSGSGSGTDFTLTISRLEPEDFALYYCQQYGSSPPYTFGQGTKVEIKR
2. VG9B36 (antibody, human IgG1, kappa, V domains shown) VH: QVQLVESGGGLVKPGGSLRLSCASSGFTFSSYGMYWVRQAPGKGLEWVSSISTGSSYIYYADSVKGRFTISRDNAKNSLYLQMNSLRAEDTAVYYCARDKGLAVTGYIMDVWGQGTTVTVSS VL: EIVLTQSPSSLSASVGDRVTITCQASQDISNYLNWYQQKPGKAPKLLIYDASNLETGVPSRFSGSGSGTDFTFTISSLQPEDIAIYYCQQYDNLPMYTFGQGTKVEIKR
3. VG9B127 (antibody, human IgG1, kappa, V domains shown) VH: QVQLVESGGGLVKPGGSLRLSCTASGFTFGAYTMNWVRQAPGKGLEWVSSISSSSSYIDFAESVKGRFTISRDNAKNSLYLQMISLRAEDTAVYYCARDGDIVSTIRGSFDYWGQGALVTVSS VL: EIVMTQSPLSLPVTPGEPASISCRSSQSLLDSDDGNTYLDWYLQKPGQSPQLLIYTLSYRASGVPDRFSGSGSGTDFTLKISRVEAEDVGIYYCMQRIEFPITFGQGTKVEIKR
4. VG9B44 (antibody, human IgG1, kappa, V domains shown) VH: QVQLQQSGPGLVKPSQTLSLTCAISGDSVSSNSAAWNWIRQSPSRGLEWLGRTYYRSKWYNDYPISVKSRISINPDTSKNQFSLQLNSVTPEDTAVYYCARESGSYYTDGFDIWGQGTMVTVSS VL: DIQMTQSPSFLSASVGDRVTITCRASQGISSYLAWYQQKPGKAPKLLIYAASTLQSGVPSRFSGSGSGTEFTLTISSLQPEDFATYYCQEFNSYPYTFGQGTKLEIKR

1: 567; 2: 2410; 3: 2230; 4: 2320

meta.source: patent US20220125947A1
